Tested on: HuVec Cells
ASSAY_COMMENT: Transfection of HuVec cells with DOTMA/DOPE/peptide and eGFP plasmid, fluorescent plate reader
Format: cell-based
ASSAY_CONDITIONS: DOTMA/DOPE 1:1 plus peptide with RRRRRRRRRRRR (SEQ ID NO: 109) at n terminus; EF1Alpha eGFP plasmid; 0.01 mL complex; 42 hours
ENDPOINT: RF (Relative Fluorescence) of Transfection of HuVec Cells
One number for each entry.

Query string: Please give measured RF (Relative Fluorescence) of Transfection of HuVec Cells of the following entry: 367 (TDIPPCPHGWISLWK; Peptidic transfection agent) [compound 367]
Result string: 13354

Query string: Please give measured RF (Relative Fluorescence) of Transfection of HuVec Cells of the following entry: 358 (GHRGPTGRPGKRGKQGQKGDS; Peptidic transfection agent) [compound 358]
Result string: 25398

Query string: Please give measured RF (Relative Fluorescence) of Transfection of HuVec Cells of the following entry: 450 (TAGSCLRKFSCL; Peptidic transfection agent) [compound 450]
Result string: 20911

Now, please, on to the next substance.
Query string: Please give measured RF (Relative Fluorescence) of Transfection of HuVec Cells of the following entry: 219 (RKRLQVQLSIRT; Peptidic transfection agent) [compound 219]
Result string: 6237

---

Test system: HuVec Cells
ASSAY_COMMENT: Transfection of HuVec cells with DOTMA/DOPE/peptide and eGFP plasmid, fluorescent plate reader
Assay type: cell-based
ASSAY_CONDITIONS: DOTMA/DOPE 1:1 plus peptide with RRRRRRRRRRRR (SEQ ID NO: 109) at n terminus; EF1Alpha eGFP plasmid; 0.01 mL complex; 42 hours
ENDPOINT: RF (Relative Fluorescence) of Transfection of HuVec Cells

Query string: Please give measured RF (Relative Fluorescence) of Transfection of HuVec Cells of the following entry: 338 (GTPGPQGIA; Peptidic transfection agent) [compound 338]
Result string: 12000

Query string: Please give measured RF (Relative Fluorescence) of Transfection of HuVec Cells of the following entry: 226 (ANGQTPIQRYIK; Peptidic transfection agent) [compound 226]
Result string: 20864

Query string: Please give measured RF (Relative Fluorescence) of Transfection of HuVec Cells of the following entry: 375 (LAGSCLPVFSTL; Peptidic transfection agent) [compound 375]
Result string: 5542

Batch request: RF (Relative Fluorescence) of Transfection of HuVec Cells for each of the following substances.
1. 349 (RNIAEIIKDI; Peptidic transfection agent) [compound 349]
2. 347 (DLGTAGSCLRKFSTM; Peptidic transfection agent) [compound 347]

Result string:
1: 22907; 2: 20728

---

System: C2C12 Cells
ASSAY_COMMENT: Transfection of C2C12 cells with DOTMA/DOPE/peptide and eGFP plasmid, fluorescent plate reader
Format: cell-based, mouse
ASSAY_CONDITIONS: DOTMA/DOPE 1:1 plus peptide with RRRRRRRRRRRR (SEQ ID NO: 109) at n terminus; EF1Alpha eGFP plasmid; 0.02 mL complex; 42 hours
ENDPOINT: RF (Relative Fluorescence) of Transfection of C2C12 Cells
One number for each entry.

Query string: System C2C12 Cells. Read-out RF (Relative Fluorescence) of Transfection of C2C12 Cells. Item 371 (GPAGKDGEAGAQG; Peptidic transfection agent) [compound 371] . Report value.
Result string: 983

Query string: System C2C12 Cells. Read-out RF (Relative Fluorescence) of Transfection of C2C12 Cells. Item 355 (FRHRNRKGY; Peptidic transfection agent) [compound 355] . Report value.
Result string: 1900

Query string: System C2C12 Cells. Read-out RF (Relative Fluorescence) of Transfection of C2C12 Cells. Item 345 (TAGSCLRKFSTMFLF; Peptidic transfection agent) [compound 345] . Report value.
Result string: 6569

Query string: System C2C12 Cells. Read-out RF (Relative Fluorescence) of Transfection of C2C12 Cells. Item 348 (HQQDLGTAGSCLRKFSTM; Peptidic transfection agent) [compound 348] . Report value.
Result string: 8625

Query string: System C2C12 Cells. Read-out RF (Relative Fluorescence) of Transfection of C2C12 Cells. Item 343 (LFSHAVSSNG; Peptidic transfection agent) [compound 343] . Report value.
Result string: 3218

Query string: System C2C12 Cells. Read-out RF (Relative Fluorescence) of Transfection of C2C12 Cells. Item 454 (TGLSCLQRFTTM; Peptidic transfection agent) [compound 454] . Report value.
Result string: 9280

Query string: System C2C12 Cells. Read-out RF (Relative Fluorescence) of Transfection of C2C12 Cells. Item 375 (LAGSCLPVFSTL; Peptidic transfection agent) [compound 375] . Report value.
Result string: 5633

Query string: System C2C12 Cells. Read-out RF (Relative Fluorescence) of Transfection of C2C12 Cells. Item 358 (GHRGPTGRPGKRGKQGQKGDS; Peptidic transfection agent) [compound 358] . Report value.
Result string: 2271

Query string: System C2C12 Cells. Read-out RF (Relative Fluorescence) of Transfection of C2C12 Cells. Item 224 (KPDVRSYTITG; Peptidic transfection agent) [compound 224] . Report value.
Result string: 1469

Query string: System C2C12 Cells. Read-out RF (Relative Fluorescence) of Transfection of C2C12 Cells. Item 326 (RLVSYSGVLFFLK; Peptidic transfection agent) [compound 326] . Report value.
Result string: 8553

Batch request: RF (Relative Fluorescence) of Transfection of C2C12 Cells for each of the following substances.
1. 335 (TVFSVDQDNMLE; Peptidic transfection agent) [compound 335]
2. 363 (LAGSCLARFSTM; Peptidic transfection agent) [compound 363]
3. 350 (SIGFRGDGQTC; Peptidic transfection agent) [compound 350]
4. 344 (KGHRGF; Peptidic transfection agent) [compound 344]
5. 452 (CNYYSNSYSFWLASLNPER; Peptidic transfection agent) [compound 452]

Result string:
4689
1080
2631
1678
21798

---

Tested on: HeLa Cells
ASSAY_COMMENT: Transfection of HeLa cells with DOTMA/SEQ ID NO: 72/peptide compared with Lipofectamine 2000
Assay type: cell-based
ASSAY_CONDITIONS: 0.4 μL of DOTMA/SEQ ID NO: 72/Peptide in well of a 96 well plate; fusogenic peptide 0.1 mg/mL
ENDPOINT: RF (Relative Fluorescence), DOTMA/SEQ ID NO: 72/Peptide, HeLa Cells
Numbers only.

Known RF (Relative Fluorescence), DOTMA/SEQ ID NO: 72/Peptide, HeLa Cells results, listed for orientation:
Query string: System HeLa Cells. Read-out RF (Relative Fluorescence), DOTMA/SEQ ID NO: 72/Peptide, HeLa Cells. Item 450 (TAGSCLRKFSCL; Peptidic transfection agent) [compound 450] . Report value.
Result string: 10241

Query string: System HeLa Cells. Read-out RF (Relative Fluorescence), DOTMA/SEQ ID NO: 72/Peptide, HeLa Cells. Item 351 (LNRQELFPFG; Peptidic transfection agent) [compound 351] . Report value.
Result string: 8791

Query string: System HeLa Cells. Read-out RF (Relative Fluorescence), DOTMA/SEQ ID NO: 72/Peptide, HeLa Cells. Item 326 (RLVSYSGVLFFLK; Peptidic transfection agent) [compound 326] . Report value.
Result string: 9227

Query string: System HeLa Cells. Read-out RF (Relative Fluorescence), DOTMA/SEQ ID NO: 72/Peptide, HeLa Cells. Item 501 (DLGTAGSCLRRFSTM; Peptidic transfection agent) [compound 501] . Report value.
Result string: 14749

Query string: System HeLa Cells. Read-out RF (Relative Fluorescence), DOTMA/SEQ ID NO: 72/Peptide, HeLa Cells. Item 341 (LRAHAVDVNG; Peptidic transfection agent) [compound 341] . Report value.
Result string: 7546

Batch request: RF (Relative Fluorescence), DOTMA/SEQ ID NO: 72/Peptide, HeLa Cells for each of the following substances.
1. 342 (TAGSCLRKFSTM; Peptidic transfection agent) [compound 342]
2. 347 (DLGTAGSCLRKFSTM; Peptidic transfection agent) [compound 347]
3. 355 (FRHRNRKGY; Peptidic transfection agent) [compound 355]
4. 377 (TAGSCLRRFSTM; Peptidic transfection agent) [compound 377]

Result string:
[18351, 14140, 18289, 22457]

Batch request: RF (Relative Fluorescence), DOTMA/SEQ ID NO: 72/Peptide, HeLa Cells for each of the following substances.
1. 369 (TAIPSCPEGTVPLYS; Peptidic transfection agent) [compound 369]
2. 452 (CNYYSNSYSFWLASLNPER; Peptidic transfection agent) [compound 452]
3. 219 (RKRLQVQLSIRT; Peptidic transfection agent) [compound 219]
4. 379 (TAGSCLRKF; Peptidic transfection agent) [compound 379]
5. 268 (GGFLKYTVSYDI; Peptidic transfection agent) [compound 268]

Result string:
[12645, 10918, 11712, 26448, 9519]
